# system: T1, Cyno HER3: CD33-[Cyno HER3, residues 20-643]-TAG (cynomolgus, UniProt G7PIG5 20-643)
# T1 construct: also called cy HER3-Tag; not shown: C-terminal TAG (e.g., FLAG TAG)
# T1 sequence (G7PIG5 entry or part of it): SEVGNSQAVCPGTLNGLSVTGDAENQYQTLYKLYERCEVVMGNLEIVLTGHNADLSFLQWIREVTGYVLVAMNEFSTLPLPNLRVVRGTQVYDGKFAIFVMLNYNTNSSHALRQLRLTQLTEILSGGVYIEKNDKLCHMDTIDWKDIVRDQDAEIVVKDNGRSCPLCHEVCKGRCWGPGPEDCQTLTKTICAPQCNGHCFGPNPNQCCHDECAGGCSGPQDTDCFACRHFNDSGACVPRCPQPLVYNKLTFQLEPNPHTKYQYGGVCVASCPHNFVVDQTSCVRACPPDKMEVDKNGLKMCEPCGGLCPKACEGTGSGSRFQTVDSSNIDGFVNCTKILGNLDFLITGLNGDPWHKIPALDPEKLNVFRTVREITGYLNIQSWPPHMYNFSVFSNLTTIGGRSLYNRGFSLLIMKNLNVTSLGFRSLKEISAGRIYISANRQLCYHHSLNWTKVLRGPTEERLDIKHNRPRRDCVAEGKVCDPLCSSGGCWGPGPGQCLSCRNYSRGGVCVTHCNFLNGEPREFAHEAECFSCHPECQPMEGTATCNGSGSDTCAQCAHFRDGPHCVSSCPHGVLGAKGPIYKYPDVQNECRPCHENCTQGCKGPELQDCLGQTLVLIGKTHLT
# test.summary: SET, IgG vs soluble HER3-Tag
Kd values, listed per item
Please state the figure in nM; there is no need to write the unit.

Take a look at these entries with their results.
MOR14536 (antibody, human IgG1, kappa, V domains shown, tested as IgG) VH: EVQLVQSGAEVKKPGESLKISCKGSGYSFSNYWIAWVRQMPGKGLEWMGIIYPGQSDTIYSPSFQGQVTISADKSISTAYLQWSSLKASDTAMYYCARVHIIQPPSAWSYNAMDVWGQGTLVTVSS VL: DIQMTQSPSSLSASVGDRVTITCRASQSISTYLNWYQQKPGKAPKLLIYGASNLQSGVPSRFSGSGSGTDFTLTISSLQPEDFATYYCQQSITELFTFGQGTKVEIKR ... 0.044
MOR12616 (antibody, human IgG1, kappa, V domains shown, tested as IgG) VH: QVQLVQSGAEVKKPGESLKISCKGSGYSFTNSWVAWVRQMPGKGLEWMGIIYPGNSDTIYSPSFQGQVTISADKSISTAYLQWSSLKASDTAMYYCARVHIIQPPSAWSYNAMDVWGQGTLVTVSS VL: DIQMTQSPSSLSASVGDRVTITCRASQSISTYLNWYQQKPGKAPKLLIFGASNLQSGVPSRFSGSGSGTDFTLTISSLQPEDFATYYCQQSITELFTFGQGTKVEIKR ... 0.074

// Kd lookup, binder = MOR12509 (antibody, human IgG1, kappa, V domains shown, tested as IgG) VH: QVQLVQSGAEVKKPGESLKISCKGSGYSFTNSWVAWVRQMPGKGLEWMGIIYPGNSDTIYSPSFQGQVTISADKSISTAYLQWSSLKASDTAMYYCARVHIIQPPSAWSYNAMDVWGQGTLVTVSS VL: DIQMTQSPSSLSASVGDRVTITCRASQSITHYLNWYQQKPGKAPKLLIFGASNLQSGVPSRFSGSGSGTDFTLTISSLQPEDFATYYCQQAFVDPSTTFGQGTKVEIKR , result: 0.32
